molecular target: T1, CD137 antigen (Octet antigen binding assay) (UniProt Q07011 24-186, limits assumed); assay: BLI, Octet Red 96, antibody on anti-human Fc (AHC) biosensors, 1:1 model
T1 construct: also called 4-1BB; TNFRSF9
This listing pairs binders with measured kon.
PARAMETER: kon

- BINDER: "LYV372 (23D2-IgG4) (antibody, V domains shown, Chimeric antibody, human IgG4 S228P / human kappa; also called 23D2 in human IgG4S; 23D2b in human Kappa) VH: QVQLQQSGAELVRPGSSVKISCKASGYAFSIYWMNWVKQRPGQGLEWIGQIYPGDGYTNYNGKFKGKATLTADKSSSTAYMQLSSLTSEDSAVYFCARGQLGLDGYWGQGTTLTVSS VL: QIVLTQSPTIMSASPGEKVTMTCSASSSVSYIYWYQQKPGSSPRLLIYDTSNLASGVPVRFSGSGSGTSYSLTISRMEAEDAATYYCQQWNIYPYTFGGGTKLEIKR"
  RESULT: "280000 M⁻¹ s⁻¹"
- BINDER: "LYV370 (20A12-IgG4) (antibody, V domains shown, Chimeric antibody: hybridoma variable domains on human IgG4 constant region with hinge S228P (EU numbering) and human kappa constant region; S228P is already in the full chain entry; also called 20A12 in human IgG4SP / human kappa) VH: QIQLVQSGPELKKPGETVKISCKASGYTFTTYGMSWVKQAPGKGLKWMGWINTYSGVPTYADDFKGRFAFSLETSASTAYLQINNLKNEDMAIYFCARGYGSPDYWGQGTTLTVSS VL: QIVLTQSPAIMSASPGEKVTMTCSASSSVSYMNWYQQKSGTSPKRWIFDTSKLASGVPARFSGSGSGTSYSLTISSMEAEDAATYYCQQWSGNPPISTFGSGTKLEIKR"
  RESULT: "180000 M⁻¹ s⁻¹"
- BINDER: "LYV390 (30C11-IgG4) (antibody, V domains shown, Chimeric antibody, human IgG4 S228P / human kappa; also called 30C11 in hG4SP / human kappa) VH: QIQLVQSGPELKKPGESVKISCKASGYTFTDYAMHWVKQAPGKALKWMGLINTYTGKPTYVDDLKGRFVFSLEASASTAKLQISNLKNEDTAIYFCARYYHDGTYYGWFANWGQGTLVTVSS VL: DTVLTQSPALAVSPGERVTVSCGATESVSTALNWYQQKPGQQPRLLIYGASNLESGVPARFSGSGSGTDFTLSIDPVEADDTATYFCQQTWNDPLTFGSGTKLEIKR"
  RESULT: "260000 M⁻¹ s⁻¹"
- BINDER: "LYV371 (11E10-IgG4) (antibody, V domains shown, Chimeric antibody, human IgG4 S228P / human kappa; also called 11E10 in human IgG4SP / human Kappa) VH: QVQLQQSGAELVRPGASVTLSCKASGYTFAGFEMHWIKQTPVHGLGWIGAIDPKTGGTDYNQKFKDKALLTADKSSNTAYMELRSLTSEDSAVYYCTRDLGYFDVWGTGTTVTVSS VL: DIQMTQTTSSLSASLGDRVTISCRASQDIRSNLNWYQQKPDGTVKLLIYYTSRLHSGVPSRFSGSGSGTDYSLTISNLEQEDIATYFCQQSEKLPRTFGGGTKLEIRR"
  RESULT: "280000 M⁻¹ s⁻¹"
